- System: Plasmodium falciparum NF54 stage V gametocytes
- method: viability index relative to DMSO control (fraction); higher = less gametocyte killing
- measurement_context: 2.5 µM, library set: Broad Institute DOS, incubation time: 72 h
Whole data set: some 9,900 compounds, median “viability index relative to DMSO control” near 1, cut for the lowest 2% near 0.85. The sample as a whole holds a higher share of the lowest values than the screen did.
assay_readout: viability index
Write the value as a bare number.

Ask: For the compound COc1ccc2c3c([C@H](CO)N(Cc4ccccc4Cl)C[C@]33CCN(CC3)C(=O)CC3CC3)n(C)c2c1 , what viability index is on record?
Result: 0.922

Ask: For the compound O=C(C[C@@H]1C=C[C@@H](NC(=O)c2ccc3c(c2)OCO3)[C@@H](CO)O1)NC1Cc2ccccc2C1 , what viability index is on record?
Result: 0.963

Ask: For the compound COc1ccc(cc1)S(=O)(=O)N1C[C@@]2(C1)CN([C@@H](CO)c1c2c2ccc(OC)cc2n1C)C(=O)CN(C)C , what viability index is on record?
Result: 0.95

Now take the following compound into account.
Ask: For the compound COc1ccc2c3c([C@@H](CO)N(C[C@]33CCN(CC3)S(C)(=O)=O)C(=O)CN(C)C)n(C)c2c1 , what viability index is on record?
Result: 0.956

---

- System: Plasmodium falciparum NF54 stage V gametocytes
- method: viability index relative to DMSO control (fraction); higher = less gametocyte killing
- measurement_context: 2.5 µM, library set: Broad Institute DOS, incubation time: 72 h
Whole data set: some 9,900 compounds, median “viability index relative to DMSO control” near 1, cut for the lowest 2% near 0.85. Shown is part of a subset that was picked to be rich in the lowest values.
assay_readout: viability index
Write the value as a bare number.

Before answering, review these 8 worked examples.
Ask: For the molecule Cc1cccc(-c2ccc([C@@H]3[C@@H](CO)N4CCCCN(S(=O)(=O)c5ccccc5F)C[C@H]34)cc2)c1 , what viability index is on record?
Result: 0.537

Ask: For the molecule C[C@@H]1CN([C@H](C)CO)C(=O)CCCn2cc(nn2)CO[C@@H]1CN(C)Cc1ccccc1 , what viability index is on record?
Result: 0.986

Ask: For the molecule Cc1ccc(S(=O)(=O)Nc2ccc3c(c2)C(=O)N([C@H](C)CO)C[C@H](C)[C@H](CN(C)S(=O)(=O)c2cccs2)OCCCC[C@H](C)O3)cc1 , what viability index is on record?
Result: 1.07

Ask: For the molecule N#Cc1ccc(-c2ccc([C@H]3[C@@H](CO)N4C(=O)CNC[C@@H]34)cc2)cc1 , what viability index is on record?
Result: 0.965

Ask: For the molecule CC(C)(C)[S@](=O)N1Cc2cc(C(=O)N3CCOCC3)nc(-c3cccc(-c4ccccc4F)c3)c2[C@@H]1CCO , what viability index is on record?
Result: 1.07

Ask: For the molecule COc1ccccc1C#Cc1ccc([C@@H]2[C@@H](C#N)N(C(=O)C3CCC3)[C@H]2CO)cc1 , what viability index is on record?
Result: 1.03

Ask: For the molecule COCC(=O)N1[C@H](CO)[C@@H](c2ccccc2)C12CN(Cc1cc(F)ccc1F)C2 , what viability index is on record?
Result: 1.07

Ask: For the molecule Cc1ccccc1-c1ccc([C@H]2[C@H](CO)N3CCCCN(S(=O)(=O)Cc4ccccc4)C[C@@H]23)cc1 , what viability index is on record?
Result: 0.924

---
Ask: For the molecule COc1ccc(S(=O)(=O)Nc2ccc3c(c2)[C@H]2C[C@H](CC(=O)N(C)C)O[C@@H](CO)[C@H]2O3)cc1 , what viability index is on record?
Result: 1.11

Ask: For the molecule COc1cccc(-c2ccc3c(c2)[C@@H]2[C@@H](CCN2S(=O)(=O)c2cn(C)cn2)[C@@H](CO)N3)c1 , what viability index is on record?
Result: 0.97

Ask: For the molecule C[C@@H]1CC(=O)NCC/C=C\C[C@H](c2ccc3c(c2)OCO3)NC1=O , what viability index is on record?
Result: 1.06

---

- Test system: Plasmodium falciparum NF54 stage V gametocytes
- method: viability index relative to DMSO control (fraction); higher = less gametocyte killing
- measurement_context: 2.5 µM, library set: Broad Institute DOS, incubation time: 72 h
The full ranking holds about 9,900 compounds; the median of “viability index relative to DMSO control” is about 1, and the lowest 2% start at about 0.85. The sample holds the lowest values, similar compounds and a random draw of the others, so the mix is not that of the screen.
assay_readout: viability index
Write the value as a bare number.

Before answering, review these 6 worked examples.
Ask: For the compound Cc1ccc(S(=O)(=O)N2CC[C@@H]3[C@@H](CO)Nc4ccc(-c5cccc(C(=O)N(C)C)c5)cc4[C@@H]32)cc1 , what viability index is on record?
Result: 0.837

Ask: For the compound N#Cc1cccc(-c2ccc3c(c2)[C@@H]2[C@@H](CCN2S(=O)(=O)c2ccc(F)cc2)[C@@H](CO)N3)c1 , what viability index is on record?
Result: 0.855

Ask: For the compound OC[C@H]1[C@@H](c2ccc(C3=CCCC3)cc2)[C@@H]2CN(Cc3ccncc3)CCCCN12 , what viability index is on record?
Result: 0.845

Ask: For the compound Cc1cccc(S(=O)(=O)N2CC[C@H]3[C@H](CO)Nc4ccc(-c5ccccc5F)cc4[C@H]32)c1 , what viability index is on record?
Result: 1.08

Ask: For the compound Cc1ccc(S(=O)(=O)N2CC[C@@H]3[C@H]2c2cc(-c4cccc(C(=O)N(C)C)c4)ccc2N[C@@H]3CO)cc1 , what viability index is on record?
Result: 0.885

Ask: For the compound CN(C)C(=O)c1cccc(-c2ccc3c(c2)[C@@H]2[C@@H](CCN2C(=O)Cc2ccccc2)[C@H](CO)N3)c1 , what viability index is on record?
Result: 0.991

---
Ask: For the compound COc1ccccc1-c1ccc2c(c1)[C@H]1[C@H](CCN1S(=O)(=O)c1ccc(C)cc1)[C@@H](CO)N2 , what viability index is on record?
Result: 0.811

Ask: For the compound CN(C)C(=O)c1cccc(-c2ccc3c(c2)[C@H]2[C@H](CCN2C(=O)Cc2ccccc2)[C@@H](CO)N3)c1 , what viability index is on record?
Result: 0.899

Ask: For the compound Cc1ccc(S(=O)(=O)N2CC[C@H]3[C@H](CO)Nc4ccc(-c5cccc(C(=O)N(C)C)c5)cc4[C@H]32)cc1 , what viability index is on record?
Result: 0.7

Ask: For the compound COc1ccc2c3c([C@H](CO)N(C[C@]33CN(C3)S(=O)(=O)c3cn(C)cn3)C(=O)Nc3ccc(F)cc3)n(C)c2c1 , what viability index is on record?
Result: 1.11

Ask: For the compound O=C(Cc1cccnc1)N1CC(=O)N2[C@H](C1)[C@@H](c1ccc(/C=C/c3ccccc3)cc1)[C@@H]2CO , what viability index is on record?
Result: 1

---

- Test system: Plasmodium falciparum NF54 stage V gametocytes
- method: viability index relative to DMSO control (fraction); higher = less gametocyte killing
- measurement_context: 2.5 µM, library set: Broad Institute DOS, incubation time: 72 h
Over roughly 9,900 compounds, “viability index relative to DMSO control” has its median near 1; the lowest 2% begin near 0.85. The sample as a whole holds a higher share of the lowest values than the screen did.
# key: entry, value: viability index

Ask: For the compound Cc1noc(C)c1NC(=O)N(C)C[C@@H]1OCc2cn(nn2)CCCC(=O)N([C@H](C)CO)C[C@@H]1C , what viability index is on record?
Result: 1.08

Ask: For the compound C[C@H]1CN([C@@H](C)CO)C(=O)c2cc(-c3cccc(C#N)c3)cnc2O[C@@H]1CN(C)C(=O)C1CCOCC1 , what viability index is on record?
Result: 1.04

Ask: For the compound O=C(C1CCOCC1)N1CC(=O)N2[C@@H](CO)[C@H](c3ccc(C#CCc4ccccc4)cc3)[C@@H]2C1 , what viability index is on record?
Result: 1.08

Ask: For the compound C[C@H](CO)N1C[C@H](C)[C@H](CN(C)C(=O)NC2CCCCC2)Oc2ncc(-c3cccc(F)c3)cc2C1=O , what viability index is on record?
Result: 1.01

Ask: For the compound O=S(=O)(c1cccc(F)c1)N1CC[C@H]2[C@H](CO)Nc3ccc(C#Cc4ccccc4F)cc3[C@H]21 , what viability index is on record?
Result: 1.1

Ask: For the compound O=C(O)[C@H]1[C@H](CO)[C@H]2Cn3c(ccc(C4=CCCCC4)c3=O)[C@H]2N1Cc1ccc2c(c1)OCO2 , what viability index is on record?
Result: 1.01

Ask: For the compound C[C@@H]1CN([C@H](C)CO)C(=O)c2cc(C#Cc3ccccc3)cnc2O[C@@H]1CN(C)C(=O)c1ccccc1 , what viability index is on record?
Result: 0.966

Ask: For the compound CCCC#Cc1cnc2c(c1)C(=O)N([C@@H](C)CO)C[C@@H](C)[C@H](CN(C)C(=O)Nc1cc(F)ccc1F)O2 , what viability index is on record?
Result: 1.05
